Recorded values, source patent US20150368338A1.

Please provide measured IC50 (pM), ISRE assay for the entries that follow.
target_entity: IFN-αK (human, UniProt P05013 24-189)
method: cell-based or functional assay
The response must be a number in pM with no trailing unit.

GET /value?item= IFWM3308 (antibody, IgG1, V domains shown) VH: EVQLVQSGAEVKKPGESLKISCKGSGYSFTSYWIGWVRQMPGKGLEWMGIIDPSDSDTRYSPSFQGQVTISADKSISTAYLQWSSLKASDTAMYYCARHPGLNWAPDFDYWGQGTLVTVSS VL: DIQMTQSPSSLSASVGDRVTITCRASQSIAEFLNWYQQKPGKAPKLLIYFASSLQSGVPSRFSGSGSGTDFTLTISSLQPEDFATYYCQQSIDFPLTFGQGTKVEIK &field=IC50 (pM), ISRE assay returns 59

Field IC50 (pM), ISRE assay (entry IFWM3307 (antibody, IgG1, V domains shown) VH: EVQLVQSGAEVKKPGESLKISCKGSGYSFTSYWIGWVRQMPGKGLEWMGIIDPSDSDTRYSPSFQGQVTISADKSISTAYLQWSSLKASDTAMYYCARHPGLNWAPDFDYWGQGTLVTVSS VL: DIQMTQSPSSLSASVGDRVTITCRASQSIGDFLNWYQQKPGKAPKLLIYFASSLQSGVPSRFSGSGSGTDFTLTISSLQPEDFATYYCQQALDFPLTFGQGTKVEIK ) reads 95

Entry under test: IFWM3314 (antibody, IgG1, V domains shown) VH: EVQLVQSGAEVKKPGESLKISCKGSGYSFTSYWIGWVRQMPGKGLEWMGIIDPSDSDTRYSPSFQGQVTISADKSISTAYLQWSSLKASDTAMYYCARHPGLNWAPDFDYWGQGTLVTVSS VL: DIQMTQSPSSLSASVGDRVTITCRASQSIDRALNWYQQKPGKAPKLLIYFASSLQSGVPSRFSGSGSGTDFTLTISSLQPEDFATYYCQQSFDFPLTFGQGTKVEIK . Its IC50 (pM), ISRE assay was 65

// sample IFWM3410 (antibody, IgG1, V domains shown) VH: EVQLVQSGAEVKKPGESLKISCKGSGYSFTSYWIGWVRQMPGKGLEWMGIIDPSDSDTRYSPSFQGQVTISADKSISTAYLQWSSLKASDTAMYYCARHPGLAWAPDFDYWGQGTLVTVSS VL: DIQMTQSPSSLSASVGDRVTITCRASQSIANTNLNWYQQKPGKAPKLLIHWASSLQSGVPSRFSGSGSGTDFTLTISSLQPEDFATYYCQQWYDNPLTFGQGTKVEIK , its IC50 (pM), ISRE assay was 41

Consider IFWM3304 (antibody, IgG1, V domains shown) VH: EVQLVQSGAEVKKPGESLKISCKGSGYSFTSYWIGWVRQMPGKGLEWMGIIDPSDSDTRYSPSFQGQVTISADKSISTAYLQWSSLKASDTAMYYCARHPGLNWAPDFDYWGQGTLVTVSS VL: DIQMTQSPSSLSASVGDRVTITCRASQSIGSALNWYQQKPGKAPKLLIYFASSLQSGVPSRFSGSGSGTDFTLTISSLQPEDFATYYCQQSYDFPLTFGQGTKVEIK . Its measured IC50 (pM), ISRE assay is 57
